protocol notes: Stability of analytes in rat plasma (auto-sampler, freeze-thaw, room temperature, long-term)
stated conditions: 500 ng/mL, −80°C 1 month
Measured −80°C for 1month Accuracy (%), listed per entry.
Field: numeric (%). Do not append units.

Field: example entries. Status: answers known.
Need −80°C for 1month Accuracy (%), item "COC(=O)C1=CO[C@@H](O[C@@H]2O[C@H](CO)[C@@H](O)[C@H](O)[C@H]2O)[C@H]2[C@@H]1C(=O)C[C@@H]2C"
104.0

Ok, now "COc1ccc([C@@H]2CC(=O)c3c(O)cc(O[C@@H]4O[C@H](CO[C@@H]5O[C@@H](C)[C@H](O)[C@@H](O)[C@H]5O)[C@@H](O)[C@H](O)[C@H]4O)cc3O2)cc1O"
93.6

Ok, now CC(C)(O[C@@H]1O[C@H](CO)[C@@H](O)[C@H](O)[C@H]1O)[C@@H]1CC[C@](O)(CO)[C@H]2CC(=O)[C@@](C)(O)[C@@H]2C1 [atractyloside A]
92.2

Ok, now "O=C(O)[C@H]1O[C@@H](Oc2cc3oc(-c4ccc(O)cc4)cc(=O)c3c(O)c2O)[C@H](O)[C@@H](O)[C@@H]1O"
103.0

Ok, now "O=C(O)C=Cc1ccc(O)cc1"
109.0

Okay, next one:
Need −80°C for 1month Accuracy (%), item "O=C(/C=C/c1ccc(O)c(O)c1)O[C@H]1[C@H](O)C[C@](O)(C(=O)O)C[C@H]1O"
104.0

---

protocol notes: Pharmacokinetic study in rat plasma after oral administration of QJYQ (UHPLC-sMRM)
Format: in vivo, Sprague-Dawley rats
stated conditions: male, Sprague-Dawley, rat, in vivo, po, 3.15 g/kg
endpoint name: MRT last (h)
Field: numeric (h). Do not append units.

Need MRT last, item "O=C1C[C@@H](c2ccc(O[C@@H]3O[C@H](CO)[C@@H](O)[C@H](O)[C@H]3O)cc2)Oc2cc(O)ccc21"
6.4

---

protocol notes: Pharmacokinetic study in rat plasma after oral administration of QJYQ (UHPLC-sMRM)
Type: in vivo, Sprague-Dawley rats
stated conditions: male, Sprague-Dawley; rat plasma, oral QJYQ 3.15 g/kg, MRT type not specified; read-out: MRT
endpoint name: MRT

Need MRT, item COc1c(O)cc(O)c2c(=O)cc(-c3ccccc3)oc12 [wogonin]
> 8 h

Okay, next one:
Need MRT, item O=C(O)[C@H]1O[C@@H](Oc2cc3oc(-c4ccccc4)cc(=O)c3c(O)c2O)[C@H](O)[C@@H](O)[C@@H]1O [baicalin]
> 8 h

---

Measured Working solution Accuracy (%), listed per entry.
protocol notes: Stability of the working solution (4°C for 1 month)
Format: physicochemical
stated conditions: 12.5 ng/mL
Field: numeric (%). Do not append units.

Field: example entries. Status: answers known.
Need Working solution Accuracy (%), item "O=C(O)c1ccc(O)c(O)c1"
104.0

Ok, now "O=C(/C=C/c1ccc(O)c(O)c1)O[C@H]1[C@H](O)C[C@](O)(C(=O)O)C[C@H]1O"
87.6

Ok, now "O=c1cc(-c2ccc(O)cc2)oc2c([C@@H]3O[C@H](CO)[C@@H](O)[C@H](O)[C@H]3O)c(O)cc(O)c12"
88.3

Okay, next one:
Need Working solution Accuracy (%), item "O.Oc1cc(O)c2c(c1)O[C@H](c1ccc(O)c(O)c1)[C@@H](O)C2"
91.6

All figures here come from paper PMC10133546.
